Recorded pEC50 values for a group of compounds are listed next.
# Measured Target: RARα (Homo sapiens)
# Construct: line from Prof; Ballaguer, INSERM 439, Montpellier
# Sequence (P10276 183-417 limits assumed): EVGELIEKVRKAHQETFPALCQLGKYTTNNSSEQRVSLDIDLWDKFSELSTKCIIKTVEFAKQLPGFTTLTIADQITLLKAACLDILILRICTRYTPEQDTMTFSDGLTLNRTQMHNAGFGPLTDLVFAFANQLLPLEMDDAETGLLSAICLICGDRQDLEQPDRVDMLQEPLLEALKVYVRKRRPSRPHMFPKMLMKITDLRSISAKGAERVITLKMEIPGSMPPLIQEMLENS
# Experiment Description: Transactivation reporter test (luciferase) in HeLa ERE Luc-hRAR cells, RARα
# Test Context: HeLa ERE Luc-hRAR cells, dose-response 10000 nM-0.04 nM, 18 hours incubation
# pEC50 is unitless: minus log10 of the molar concentration; print number only

Below, each entry is followed by its recorded pEC50 result.
CC1(C)CCC(C)(C)c2cc(-c3cnc(-c4ccc(C(=O)O)cc4)s3)ccc21 5.01
CCOCOc1ccc(-c2noc(-c3ccc(C(=O)O)cc3)n2)cc1C(C)(C)C 6.19
CCCOc1ccc(-c2cnc(-c3ccc(C(=O)O)cc3)s2)cc1C1(C)CCCCC1 5.50

Name the recorded pEC50 for COc1ccc(-c2cnc(-c3ccc(C(=O)O)cc3)s2)cc1C(C)(C)C .
6.96

Field entry: CCOCOc1ccc(-c2noc(-c3ccc(C(=O)O)cc3)n2)cc1C1(C)CCCCC1
7.05

Field entry: CCOc1ccc(-c2noc(-c3ccc(C(=O)O)cc3)n2)cc1C(C)(C)C
6.59

Field entry: CC(C)(C)c1cc(-c2noc(-c3ccc(C(=O)O)cc3)n2)ccc1O
6.97

---

# Measured Target: RARβ (Homo sapiens, UniProt P10826)
# Construct: line from Prof; Ballaguer, INSERM 439, Montpellier
# Sequence (P10826 183-417 limits assumed): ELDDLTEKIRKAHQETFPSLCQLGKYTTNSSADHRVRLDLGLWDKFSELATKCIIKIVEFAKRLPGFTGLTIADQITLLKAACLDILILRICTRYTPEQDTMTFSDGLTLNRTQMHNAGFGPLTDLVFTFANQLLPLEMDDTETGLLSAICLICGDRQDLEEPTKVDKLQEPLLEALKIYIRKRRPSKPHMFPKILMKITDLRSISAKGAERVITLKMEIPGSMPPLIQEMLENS
# Experiment Description: Transactivation reporter test (luciferase) in HeLa ERE Luc-hRAR cells, RARβ
# Test Context: HeLa ERE Luc-hRAR cells, dose-response 10000 nM-0.04 nM, 18 hours incubation
Endpoint: pEC50
# pEC50 is unitless: minus log10 of the molar concentration; print number only

Name the recorded pEC50 for CCOCOc1ccc(-c2noc(-c3ccc(C(=O)O)cc3)n2)cc1C1(C)CCCCC1 .
9.25

Field entry: CCCOc1ccc(-c2cnc(-c3ccc(C(=O)O)cc3)s2)cc1C1(C)CCCCC1
6.20

Field entry: COc1ccc(-c2cnc(-c3ccc(C(=O)O)cc3)s2)cc1C(C)(C)C
6.79

Field entry: CCOCOc1ccc(-c2noc(-c3ccc(C(=O)O)cc3)n2)cc1C(C)(C)C
8.21

Field entry: CCOc1ccc(-c2noc(-c3ccc(C(=O)O)cc3)n2)cc1C(C)(C)C
8.42

Field entry: CC(C)(C)c1cc(-c2noc(-c3ccc(C(=O)O)cc3)n2)ccc1O
8.52

Field entry: CC1(C)CCC(C)(C)c2cc(-c3cnc(-c4ccc(C(=O)O)cc4)s3)ccc21
7.28

---

# Measured Target: RARβ (Homo sapiens)
# Construct: expressed in transfected cells; line from Prof; Ballaguer, INSERM 439, Montpellier
# Experiment Description: Transactivation reporter test (luciferase) in HeLa ERE Luc-hRAR cells, RARβ
# Assay type: cell-based
# Test Context: normalized to basal control and maximum efficacy control CD0193 100 nM
Recorded RARβ Efficacy (%) values for a group of compounds are listed next.
Write the number in % without appending the unit.

CC1(C)CCC(C)(C)c2cc(-c3cnc(-c4ccc(C(=O)O)cc4)s3)ccc21 110
CCCOc1ccc(-c2cnc(-c3ccc(C(=O)O)cc3)s2)cc1C1(C)CCCCC1 90

// next item, RARβ Efficacy (%) requested
Lookup: RARβ Efficacy (%) / RARβ (Homo sapiens) / CCOc1ccc(-c2noc(-c3ccc(C(=O)O)cc3)n2)cc1C(C)(C)C
92
